# System: Mycobacterium tuberculosis
# procedure_text: Cornell - Phenotypic assay to identify agents that inhibit growth of Mycobacterium tuberculosis
# Assay type: functional
# Set-up: scale not given: direction of the effect not stated beside the values
# condition_summary: 10 mM as filed; unlikely as a test dose
Screen size: about 53,000 compounds; about 900 (1.7%) showed an effect of 50% or more. For the sample, strong results were picked, then their nearest neighbours and some compounds at random.
measurement_kind: Percent Effect
Answer format: number, then unit.

The cases that follow already have their Percent Effect on record.
molecule="CCc1nnc(NC(=O)c2c3c(nn2C2CCS(=O)(=O)C2)CCC3)s1 (centres undefined)" measurement_kind="Percent Effect" obs_value=-18.44%
molecule="COc1ccccc1C(=O)N1CC(=O)N(CC(C)C)CC(O)C1 (centres undefined)" measurement_kind="Percent Effect" obs_value=11.6%
molecule=CO[C@@H]1CN(C)S(=O)(=O)[C@@]12CCN(Cc1ccccc1)C2 measurement_kind="Percent Effect" obs_value=9.469%
molecule="NC(=O)C1CCCN(Cc2ccc(C(=O)Nc3cnns3)cc2)C1 (centres undefined)" measurement_kind="Percent Effect" obs_value=2.81%
molecule="Cc1cc(NC(=O)C(c2cccc(F)c2)N2CCOCC2)sn1 (centres undefined)" measurement_kind="Percent Effect" obs_value=-15.26%
molecule=COCCC(=O)NCc1ccc(-c2ncncc2C(=O)N(C)C)cc1 measurement_kind="Percent Effect" obs_value=32.24%

Exercise: // output Percent Effect; input CCOc1cccc(C2CC(=O)NCc3nc(N4CCCC4)sc32)c1 (centres undefined) ; system Mycobacterium tuberculosis
Key: -20.96%

Exercise: // output Percent Effect; input CCCC(=O)N1CCOC2(COCCN(CC(=O)NC)C2)C1.O=C(O)C(F)(F)F (centres undefined) ; system Mycobacterium tuberculosis
Key: 6.771%

Exercise: // output Percent Effect; input COCC1CCN(C(=O)c2cn(Cc3ccccc3F)nn2)CC1 ; system Mycobacterium tuberculosis
Key: 25.9%
